The entries below come with measured polymerase ribozyme fitness (log ratio) values attached.
B1: TPR t1 (parent)
chain: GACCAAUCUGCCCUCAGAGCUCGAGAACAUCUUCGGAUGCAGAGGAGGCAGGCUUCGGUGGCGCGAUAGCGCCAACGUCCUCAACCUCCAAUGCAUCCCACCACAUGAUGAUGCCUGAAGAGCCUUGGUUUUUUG

Variants of: B1
Test: polymerase ribozyme fitness, log enrichment relative to wild type (log ratio); higher = more active; in vitro selection for triplet polymerase activity
Give your answer as a number; write no unit.

*Q* Entry C13U A18G G23A A46U A111G needs its polymerase ribozyme fitness (log ratio) filled in; supply it.
*A* -7.19
